system: 786-0; test: NCI tumour cell line growth inhibition, 48 h
Calls of active or inactive are those of the source. Rule as the data show it: active = GI50 up to about 1.1 µM and inactive = higher.
Use one of these outcomes when replying: active, inactive

Observe how each entry below is paired with its result.
Cc1cc2[nH]c3c(C#N)c(-c4ccccc4)c(/C=N/c4ccc(Cl)cc4)c(=O)n3c2cc1C :: inactive
C[C@@H](c1ccccc1)N(CC#N)[C@H]1CCC[C@]1(O)/C=C/c1ccc2c(c1)OCO2 :: inactive
CCC12C[N+]3([O-])CCc4c([nH]c5ccccc45)C(C(=O)OC)(c4cc5c(cc4OC)N(C)C4C(O)(C(=O)OC)C(OC(C)=O)C6(CC)C=CCN7CCC54C76)CC(C3)C1O2 (stereo not given) :: active
O=C(Nc1nnc(-c2ccccc2)o1)C(SC(=S)N1CCOCC1)c1ccccc1 (stereo not given) :: inactive
CCN(CC)CCC(=O)c1ccc(Oc2ccc(C)cc2)cc1 :: inactive
Cc1c(CNc2ccc(Cl)c(Cl)c2Cl)cnc2nc(N)nc(N)c12 :: active
Nc1ccc(C(=O)CC(N)C(=O)O)cc1O (stereo not given) :: inactive
CCc1ccc(Cc2ccc(CC)c(NC(=O)C(=O)C3NC(=S)NC3=O)c2CC)c(CC)c1NC(=O)C(=O)C1NC(=S)NC1=O (stereo not given) :: inactive

Call for entry C/C(=N\NC(=S)NC(CCC(=O)O)C(=O)O)c1ccccn1 (stereo not given) :
inactive

Call for entry CCOC(=O)C[C@@]12CCCN[C@]1(C)CCc1ccccc12 :
inactive

Call for entry CC(C)/C(Cl)=N/OC(NC(=O)Nc1ccc(Cl)c(Cl)c1)(C(F)(F)F)C(F)(F)F :
inactive

---

system: NCI-H23; experiment: NCI tumour cell line growth inhibition, 48 h
Activity calls are given as the source filed them. No stated cut-off is given here; in the data, active = GI50 up to about 1.1 µM and inactive = higher.
recorded metric: GI50

CCc1ccc(Cc2ccc(CC)c(NC(=O)C(=O)C3NC(=S)NC3=O)c2CC)c(CC)c1NC(=O)C(=O)C1NC(=S)NC1=O (centres undefined) :: > 100 µM (inactive)
CC1(C)CCC(C)(C)c2cc(C(=O)Nc3ccc(C(=O)O)cc3)ccc21 :: 17.9 µM (inactive)
CC(C)(C)c1cc2c(O)c(c1)C(c1ccccc1)c1cc(C(C)(C)C)cc(c1O)Cc1cc(C(C)(C)C)cc(c1O)C(c1ccccc1)c1cc(C(C)(C)C)cc(c1O)C2 (centres undefined) :: > 100 µM (inactive)
CC(=O)NC1=C(C)C(=O)c2c(nc3n2CCC3O)C1=O (centres undefined) :: 35.4 µM (inactive)
COc1cc2c(c(OC(C)=O)c1OC(C)=O)-c1ccc(SC)c(=O)cc1C(NC(C)=O)CC2 (centres undefined) :: 1.92 µM (inactive)

Value of measured GI50 for the entry Cc1cc(S(=O)(=O)O)c(NC(=O)C(=O)C2C=CCS2(=O)=O)cc1Cl (centres undefined) : > 100 µM (inactive)

Value of measured GI50 for the entry COc1ccc2c(c1)-c1nn(CCN(C)C)c3ccc(C(=O)NCCCN(C)CCCNC(=O)c4ccc5c6c(c7cc(OC)ccc7nc46)NN5CCN(C)C)c(c13)N2 : 0.0344 µM (active)

Value of measured GI50 for the entry Cc1cc(C)cc(-n2c3nc(=O)n(C)c(=O)c-3nc3ccccc32)c1 : 15.7 µM (inactive)

Value of measured GI50 for the entry C=CCOC(=O)N1c2ccc(O)cc2[C@@]23O[C@@]24[C@@H]1C#C/C=C\C#C[C@]3(O)C(=O)C[C@@H]4C : 22.7 µM (inactive)

Value of measured GI50 for the entry COc1cc(COC(=O)N2CSCC2C(=O)O)c([N+](=O)[O-])cc1OC (centres undefined) : > 100 µM (inactive)

Value of measured GI50 for the entry COc1ccc(CNc2nc(NCc3ccc(OC)cc3)nc(NC3CCCC3)n2)cc1 : 2.99 µM (inactive)

Value of measured GI50 for the entry O=C(Nc1ccccc1)OCc1nc2c([nH]1)C(=O)C=CC2=O : 19.4 µM (inactive)

Value of measured GI50 for the entry O=S(=O)(O)c1cc(S(=O)(=O)O)c2cc(/N=N/c3c(O)ccc4ccccc34)ccc2c1 : > 100 µM (inactive)

Value of measured GI50 for the entry O=C1CC(c2ccccc2)n2cccc21 (centres undefined) : > 100 µM (inactive)

Value of measured GI50 for the entry CC(=O)n1[nH]c(=O)n(-c2ccccc2)c1=O : > 100 µM (inactive)

Value of measured GI50 for the entry O=c1[nH]c(Nc2nc3ccccc3[nH]2)nc2c1CCC2 : 74.3 µM (inactive)

Value of measured GI50 for the entry O=C(c1ccccc1)C(c1ccccc1)C1(O)C(=O)Nc2ccc(Br)cc21 (centres undefined) : 50.4 µM (inactive)

Value of measured GI50 for the entry O=C(c1nc2ccc(Cl)cc2nc1O)C(O)c1ccc2c(c1)OCO2 (centres undefined) : > 100 µM (inactive)

Value of measured GI50 for the entry Cn1c(=O)c2c(n(C)c1=O)n1c(=O)c3ccccc3nc1n2C : > 100 µM (inactive)

---

system: UO-31; assay: NCI tumour cell line growth inhibition, 48 h
The source made the active and inactive calls. Rule as the data show it: active = GI50 up to about 1.1 µM and inactive = higher.
Below: a set of entries, each annotated with reported GI50.

Some molecules with known GI50 results, for comparison:
CCN=C=NCCCN(C)C :: > 100 µM (inactive)
CCOC(=O)c1nc2cc(C(F)(F)F)ccc2nc1Nc1cc(OC)c(OC)c(OC)c1 :: > 100 µM (inactive)
COc1ccc2[nH]c(C(=O)N3CC(CCl)c4ccc([N+](=O)[O-])cc43)cc2c1 (stereo unspecified) :: > 100 µM (inactive)

Note: attention shifts to another entry.
The recorded GI50 with UO-31 for CC(C)Oc1c(C2(c3ccccc3)SCCCS2)c(=O)c1=O was > 100 µM (inactive)

---

tested on: SN12C; assay: NCI tumour cell line growth inhibition, 48 h
The source made the active and inactive calls. Cut-off read from the data, not from the text of the source: active = GI50 up to about 1.1 µM and inactive = higher.
Use one of these outcomes when replying: active, inactive

Observe how each entry below is paired with its result.
COc1ccc2nc3ccccc3c(NCCCCN(CCCl)CCCl)c2c1 :: active
N#Cc1nc(CCC(C(=O)O)N2C(=O)c3ccccc3C2=O)oc1N (stereo unspecified) :: inactive
CC(C)(C)C1CCC2c3c([nH]c4ccccc34)C3C(=O)N(c4ccc([N+](=O)[O-])cc4)C(=O)C3C2C1 (stereo unspecified) :: inactive
COc1cc(COC(=O)N2CSCC2C(=O)O)c([N+](=O)[O-])cc1OC (stereo unspecified) :: inactive

Call for entry O=C1N(c2ccc(Cl)cc2)C(=O)C2(SC=NN2Cc2ccccc2)N1c1ccc(Cl)cc1 (stereo unspecified) :
inactive

Call for entry O=CNc1ccccc1OCCOc1ccccc1NC=O :
inactive

Call for entry CCN(CC)CCSc1c2ccccc2nc2c(OC)ccc(OC)c12 :
inactive

Call for entry Cc1ccc(C2=[N+]([O-])c3ccccc3C2=O)cc1 :
inactive

Call for entry O=c1[nH]c(=O)c2c3n(cc2[nH]1)CCCCC3 :
inactive

Call for entry COc1ccc2c(c1)nc1n2C(N)=Nc2ccccc2S1 :
inactive

Call for entry CCN(CC)C(=O)c1c(N2CCOCC2)cc(N(CC)CC)oc1=O :
inactive

---

test system: RXF 393; test: NCI tumour cell line growth inhibition, 48 h
Activity calls are given as the source filed them. Rule as the data show it: active = GI50 up to about 1.1 µM and inactive = higher.
Use one of these outcomes when replying: yes (1) (active), no (0) (inactive)

Call for entry CC(C)CNC(=O)c1c(NC(=O)c2ccccc2)sc2[nH]c(=O)n(-c3ccccc3)c(=O)c12 :
no (0)

Call for entry CCOc1ccc2nc3nc(O)nc(C)c3c(NCCCN(CC)CC)c2c1 :
no (0)

Call for entry CN(C)CC1CCC/C(=C\c2ccc(OC(=O)/C=C/c3ccc(Cl)c(Cl)c3)cc2)C1=O (centres undefined) :
no (0)

---

system: Malme-3M; experiment: NCI tumour cell line growth inhibition, 48 h
The source made the active and inactive calls. Rule as the data show it: active = GI50 up to about 1.1 µM and inactive = higher.
Use one of these outcomes when replying: active, inactive

NCCC(=O)N[C@@H](Cc1cc(O)c(O)c(SCC(NC(=O)CC[C@H](N)C(=O)O)C(=O)NCC(=O)O)c1)C(=O)O (stereo partly specified) :: inactive

Call for entry Clc1ccc(C2c3ccccc3-c3nc4ccccc4n32)cc1 (stereo unspecified) :
inactive

Call for entry CCN(CC)CCC(=O)c1ccc(Oc2ccc(C)cc2)cc1 :
inactive

Call for entry C/C(=N\NC(=S)N(C)C)c1ncc[nH]1 :
inactive

Call for entry O=C(/C=C1/Nc2ccc([N+](=O)[O-])cc2N/C1=C/C(=O)c1ccc(Cl)cc1)c1ccccc1 :
inactive

Call for entry COc1ccc(Cn2c3ccc([N+](=O)[O-])cc3c(=O)n2Cc2ccccn2)cc1 :
inactive

Call for entry Brc1c(C#CCC2CCCCC2)ccc(C#CCC2CCCCC2)c1Br :
inactive

Call for entry Cc1ccc2nc(NC(=O)C(=O)C3C(=O)NC(=S)NC3=O)sc2c1 :
inactive

---

Below: a set of entries, each annotated with reported GI50.
test system: HCC 2998; assay: NCI tumour cell line growth inhibition, 48 h
The source made the active and inactive calls. No stated cut-off is given here; in the data, active = GI50 up to about 1.1 µM and inactive = higher.

Some molecules with known GI50 results, for comparison:
CC(C)/C(Cl)=N/OC(NC(=O)Nc1ccc(Cl)c(Cl)c1)(C(F)(F)F)C(F)(F)F :: 20.1 µM (inactive)
N#Cc1nc(CCC(C(=O)O)N2C(=O)c3ccccc3C2=O)oc1N (stereo not given) :: > 100 µM (inactive)

Value of measured GI50 for the entry c1ccc2c(c1)-c1ccccc1C2NC1=NCCO1 : 15.6 µM (inactive)

Value of measured GI50 for the entry COc1cc2c(cc1Cc1c(F)cccc1Cl)nc(-c1c(F)cccc1Cl)n2Cc1c(F)cccc1Cl : 17.5 µM (inactive)

Value of measured GI50 for the entry C/C(=N\NC(=S)N(C)C)c1ncc[nH]1 : 3.52 µM (inactive)

Value of measured GI50 for the entry C=C(c1ccccc1)C1ON(C)CCc2cc(OC)c(OC)cc21 (stereo not given) : > 100 µM (inactive)

Value of measured GI50 for the entry COc1cc(OC)cc(OCc2ccc3nc(-c4ccccc4)c(Cl)nc3c2)c1 : 32.7 µM (inactive)

Value of measured GI50 for the entry CC(CCC(=O)O)[C@H]1CCC2[C@H]3C(CC(=O)[C@@]21C)[C@@]1(C)CCC(O)C[C@H]1C[C@@H]3O (stereo not given in full) : > 100 µM (inactive)

Value of measured GI50 for the entry CCOc1ccc2c(ccc(/C=C/c3cc(C)c4cccnc4c3O)[n+]2C)c1 : 0.746 µM (active)

Value of measured GI50 for the entry O=P(O)(O)CN1CCNCCN(CP(=O)(O)O)CCNCC1 : 7.64 µM (inactive)
